molecular target: recombinant human SYK360-635 (Spleen Tyrosine Kinase) (Homo sapiens (Human)); assay: SYK kinase assay (33P filtration, IC50 of SYK inhibition); conditions: read-out: ENZYME_FILTRATION_IC50; SYK 0.5 nM, ATP 20 μM, 33P filtration
Rule for this label: t means IC50 is less than 0.04 µM; f means IC50 is at least 0.04 µM.

Known results for molecules:
In [3]: df
Out[3]:
                                   molecule                               target_desc  assigned_category
0  Cc1cc(Nc2cnc3[nH]cc(C(=O)NC(C)(C)C)c3n2)[nH]n1  recombinant human SYK360-635 (Spleen Tyrosine Kinase) (Homo sapiens (Human))                  t
1  CC(C)(C)NC(=O)c1c[nH]c2ncc(Nc3cccc(S(C)(=O)=O)c3)nc12  recombinant human SYK360-635 (Spleen Tyrosine Kinase) (Homo sapiens (Human))                  t

Here is the next item to consider.
Report whether reported IC50 is lower than 0.04 µM (strictly) for `CC(C)(C)NC(=O)c1c[nH]c2ncc(Nc3ccc(S(C)(=O)=O)nc3)nc12`
f

----------
biological target: recombinant human SYK360-635 (Spleen Tyrosine Kinase) (Homo sapiens (Human), UniProt P43405); assay: SYK kinase assay (33P filtration, IC50 of SYK inhibition)
reported.property: IC50 (nM)
Give bare numbers, in nM.

Entry `[2H]c1c([2H])c([2H])c(Nc2cnc3[nH]cc(C(=O)NC(C)(C)C)c3n2)c([2H])c1[2H]` ; IC50 = 4.8

----------
target: recombinant human SYK360-635 (Spleen Tyrosine Kinase) (Homo sapiens (Human), UniProt P43405); assay: SYK kinase assay (33P filtration, IC50 of SYK inhibition); conditions: read-out: ENZYME_FILTRATION_IC50; SYK 0.5 nM, ATP 20 μM, 33P filtration
reported.property: pIC50
Numbers only, as −log10 of the molar value.

Below, 3 compounds whose answers are already recorded.
>>> df
                              smiles_string  readout_value
0  Cc1ncc(Nc2cnc3[nH]cc(C(=O)NC(C)(C)C)c3n2)cn1           6.79
1  Cc1nsc(Nc2cnc3[nH]cc(C(=O)NC(C)(C)C)c3n2)n1           7.75
2  CC(C)(CO)NC(=O)c1c[nH]c2ncc(Nc3cccnc3)nc12           8.25

Go through the list and state pIC50 for each entry.
1. Cn1cc(Nc2cnc3[nH]cc(C(=O)NC(C)(C)CO)c3n2)cn1
2. CC(C)(C)NC(=O)c1c[nH]c2ncc(Nc3ccnc(S(C)(=O)=O)c3)nc12
3. Cc1ccc(Nc2cnc3[nH]cc(C(=O)NC(C)(C)C)c3n2)c(F)c1
4. Cc1ccc(Nc2cnc3[nH]cc(C(=O)NC(C)(C)CO)c3n2)nc1
5. CN(C)C(=O)c1ccccc1Nc1cnc2[nH]cc(C(=O)NC(C)(C)C)c2n1
6. Cn1ccc(Nc2cnc3[nH]cc(C(=O)NC(C)(C)C)c3n2)n1

7.30
6.92
7.96
7.56
6.03
7.68

----------
Give IC50 for every item shown.
biological target: recombinant human SYK360-635 (Spleen Tyrosine Kinase) (Homo sapiens (Human)); experiment: SYK kinase assay (33P filtration, IC50 of SYK inhibition); details: read-out: ENZYME_FILTRATION_IC50; SYK 0.5 nM, ATP 20 μM, 33P filtration
Numbers only, in nM.

These recorded examples may help you get a feel for the data.
>>> df
                              smiles_string  reported_property  scale_unit  readout_value
0  Cc1ccc(Nc2cnc3[nH]cc(C(=O)NC(C)(C)C)c3n2)c(C)c1               IC50          nM            117
1  Cc1cc(Nc2nc3c(C(=O)NC(C)(C)C)c[nH]c3nc2C)sn1               IC50          nM            251
2  Cc1ccc(Nc2cnc3[nH]cc(C(=O)NC(C)(C)C)c3n2)nc1               IC50          nM            8.5
3  Cc1ccc(Nc2cnc3[nH]cc(C(=O)NC(C)(C)C)c3n2)cc1               IC50          nM            3.2

Items follow; give IC50 for each.
1. COc1ncc(Nc2cnc3[nH]cc(C(=O)NC(C)(C)C)c3n2)cn1
2. Cc1cnc(Nc2cnc3[nH]cc(C(=O)NC(C)(C)C)c3n2)cn1
3. Cc1nn(C)cc1Nc1cnc2[nH]cc(C(=O)NC(C)(C)C)c2n1
4. Cc1cc(Nc2nc3c(C(=O)NC(C)(C)C)c[nH]c3nc2Cl)sn1

1. 71.2
2. 51.3
3. 97.5
4. 640

Looking up `Cc1nc2[nH]cc(C(=O)NC(C)(C)C)c2nc1Nc1cccc(S(C)(=O)=O)c1` , I see its IC50 listed as 2940

----------
Give pIC50 for every item shown.
target: recombinant human SYK360-635 (Spleen Tyrosine Kinase) (Homo sapiens (Human), UniProt P43405); test: SYK kinase assay (33P filtration, IC50 of SYK inhibition); conditions: read-out: ENZYME_FILTRATION_IC50; SYK 0.5 nM, ATP 20 μM, 33P filtration
Numbers only, as −log10 of the molar value.

Completed entries (count: 3):
In [3]: df
Out[3]:
                                   compound  reported_property  readout_value
0  Cc1ccc(Nc2cnc3[nH]cc(C(=O)NC(C)(C)C)c3n2)cn1 [Compound I-6]              pIC50           7.77
1  Cc1c(Nc2cnc3[nH]cc(C(=O)NC(C)(C)C)c3n2)cnn1C [Compound I-16]              pIC50           7.03
2  CC(N)c1cccc(Nc2cnc3[nH]cc(C(=O)NC(C)(C)C)c3n2)c1 (stereo not drawn) [Compound I-27]              pIC50           7.73

Record pIC50 for all entries; do not skip any.
1. CC(C)(C)NC(=O)c1c[nH]c2ncc(Nc3cncc(S(C)(=O)=O)c3)nc12 [Compound I-29]
2. CC(O)c1cccc(Nc2cnc3[nH]cc(C(=O)NC(C)(C)C)c3n2)c1 (stereo not drawn) [Compound I-24]
3. Cn1cc(Nc2cnc3[nH]cc(C(=O)NC(C)(C)C)c3n2)cn1 [Compound I-5]
4. CC(C)(C)NC(=O)c1c[nH]c2ncc(Nc3cccnc3)nc12 [Compound I-10]
5. CCn1cc(Nc2cnc3[nH]cc(C(=O)NC(C)(C)C)c3n2)cn1 [Compound I-14]

6.64
8.23
7.86
7.79
7.44

----------
molecular target: recombinant human SYK360-635 (Spleen Tyrosine Kinase) (Homo sapiens (Human)); assay: SYK kinase assay (33P filtration, IC50 of SYK inhibition); conditions: read-out: ENZYME_FILTRATION_IC50; SYK 0.5 nM, ATP 20 μM, 33P filtration
reported.property: pIC50
Numbers only, as −log10 of the molar value.

Guide cases for pIC50, answers given:
>>> print(df.to_string())
                              smiles_string                               target_desc  readout_value
0  Cc1ccc(Nc2cnc3[nH]cc(C(=O)NC(C)C)c3n2)nc1  recombinant human SYK360-635 (Spleen Tyrosine Kinase) (Homo sapiens (Human))           7.37
1  Cc1cc(Nc2cnc3[nH]cc(C(=O)NC(C)(C)C)c3n2)on1  recombinant human SYK360-635 (Spleen Tyrosine Kinase) (Homo sapiens (Human))           7.60
2  CN(c1cccnc1)c1cnc2[nH]cc(C(=O)NC(C)(C)C)c2n1  recombinant human SYK360-635 (Spleen Tyrosine Kinase) (Homo sapiens (Human))           5.72
3  Cc1cc(Nc2cnc3[nH]cc(C(=O)NC(C)(C)C)c3n2)sn1  recombinant human SYK360-635 (Spleen Tyrosine Kinase) (Homo sapiens (Human))           8.70
4  CC(C)(C)NC(=O)c1c[nH]c2ncc(Nc3ccc(S(C)(=O)=O)cc3)nc12  recombinant human SYK360-635 (Spleen Tyrosine Kinase) (Homo sapiens (Human))           7.52

Quick request: pIC50 for each listed item, please.
1. Cn1cc2c(n1)CCCN2c1cnc2[nH]cc(C(=O)NC(C)(C)C)c2n1
2. Cn1ncc2c1CCCN2c1cnc2[nH]cc(C(=O)NC(C)(C)C)c2n1

1. 7.36
2. 6.78
